Provenance of the data: patent US8008299B2

target.under.test: Human UII (U-II receptor) in 6D9 human rhabdomyosarcoma cells (Homo sapiens)
Construct: 6D9: isolated by dilution subcloning of RMS13 cells, ATCC® Number: CRL-2061; host or cells: 6D9 human rhabdomyosarcoma cells (subclone of RMS13)
Sequence (Q9UKP6 whole entry): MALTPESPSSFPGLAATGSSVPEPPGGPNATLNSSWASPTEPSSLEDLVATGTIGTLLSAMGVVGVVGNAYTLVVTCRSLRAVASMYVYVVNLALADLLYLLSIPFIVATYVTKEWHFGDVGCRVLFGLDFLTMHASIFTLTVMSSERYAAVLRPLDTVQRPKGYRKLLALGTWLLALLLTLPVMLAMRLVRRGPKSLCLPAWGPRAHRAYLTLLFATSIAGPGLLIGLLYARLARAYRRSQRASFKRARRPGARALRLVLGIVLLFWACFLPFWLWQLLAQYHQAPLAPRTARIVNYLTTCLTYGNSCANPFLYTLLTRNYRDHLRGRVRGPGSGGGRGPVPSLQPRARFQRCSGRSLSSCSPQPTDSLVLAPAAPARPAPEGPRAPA
measurement.description: Human UII Calcium Mobilization Assay
Format: cell-based
test.context: 6D9 human rhabdomyosarcoma cells, FLIPR TETRA, average; read-out: Human UII Ca+ Mobilization Average IC50
parameter.measured: IC50 (nM)
Give the quantity in nM, number only.

input.smiles	value.units	endpoint.value
CCN1CCN(c2cccc3c2CN([C@H](CCCn2cnc4ccccc42)c2ccc(OC)c(OC)c2)C3=O)CC1	nM	380
CCN1CCN(c2cccc3c2CN([C@H](CCCN2Cc4ccccc4C2)c2ccc(OC)c(OC)c2)C3=O)CC1	nM	319

Which IC50 reading was recorded for the compound COc1ccc([C@@H](CCCN(C)S(=O)(=O)c2cccs2)N2Cc3c(cccc3N3CCN(C(C)C)CC3)C2=O)cc1OC ?
177

Param item = CCN1CCN(c2cccc3c2CN([C@H](CCCN(Cc2ccccc2)Cc2ccccc2)c2ccc(OC)c(OC)c2)C3=O)CC1 ; retrieve measured IC50.
178
